Where these numbers come from: ChEMBL document CHEMBL3045982

test system: Pseudoperonospora cubensis; assay: Fungicidal activity against Pseudoperonospora cubensis at 25 mg/L relative to untreated control; type: functional
Quick rule: Activity of at least 70% means Y, below that means N.

CO/C=C(/C(=O)OC)c1ccccc1COc1ccc2c3c(c(=O)oc2c1)CCC3 | Y
CO/C=C(/C(=O)OC)c1ccccc1COc1ccc2oc(=O)cc(C)c2c1 | N
CO/C=C(/C(=O)OC)c1ccccc1COc1cc(=O)oc2ccccc12 | N
CCCc1cc(=O)oc2cc(OCc3ccccc3/C(=C\OC)C(=O)OC)ccc12 | Y

Here's the next entry for you.
Input: Given CO/N=C(/C(=O)OC)c1ccccc1COc1ccc2c(C)c(C)c(=O)oc2c1C , state whether its Activity is at least 70%.
Output: N

====

system: Pseudoperonospora cubensis; assay: Fungicidal activity against Pseudoperonospora cubensis at 25 mg/L relative to untreated control; format: functional
OBSERVATION_TYPE: Activity (%)
Give bare numbers, in %.

CNC(=O)/C(=N/OC)c1ccccc1COc1ccc2c(C)c(C)c(=O)oc2c1C | 20
CO/C=C(/C(=O)OC)c1ccccc1COc1ccc2c(C)cc(=O)oc2c1 | 97
CO/C=C(/C(=O)OC)c1ccccc1COc1ccc2c(-c3ccccc3)cc(=O)oc2c1C | 50
CO/N=C(/C(=O)OC)c1ccccc1COc1ccccc1C | 35
CCCc1c(C)c2ccc(OCc3ccccc3/C(=C\OC)C(=O)OC)cc2oc1=O | 20
CCCCCCc1c(C)c2ccc(OCc3ccccc3/C(=C\OC)C(=O)OC)cc2oc1=O | 100
CO/C=C(/C(=O)OC)c1ccccc1COc1ccc2c(C)c(F)c(=O)oc2c1 | 95
CO/C=C(/C(=O)OC)c1ccccc1COc1cc2oc(=O)cc(C)c2cc1C(C)=O | 50

For every listed record, write down its Activity.
1. CCc1cc(=O)oc2cc(OCc3ccccc3/C(=C\OC)C(=O)OC)ccc12
2. CO/C=C(/C(=O)OC)c1ccccc1COc1ccc2c3c(c(=O)oc2c1)CCCC3

Output:
[100, 100]

====

system: Pseudoperonospora cubensis; experiment: Fungicidal activity against Pseudoperonospora cubensis at 25 mg/L relative to untreated control; type: functional
Please respond with yes when measured Activity is strictly beneath 80%, and with no in all other cases.

Past entries and their recorded results:
CO/C=C(/C(=O)OC)c1ccccc1COc1ccc2c(-c3ccc(Cl)nc3)cc(=O)oc2c1 | yes
COC(=O)N(OC)c1ccccc1COc1ccc2c(C)c(C)c(=O)oc2c1C | yes
CO/N=C(/C(=O)OC)c1ccccc1COc1ccc2c(C)c(Cl)c(=O)oc2c1 | no
COC(=O)N(OC)c1ccccc1COc1ccc2c(C)c(C)c(=O)oc2c1 | no

Input: hey, is Activity for CO/C=C(/C(=O)OC)c1ccccc1Oc1cc(Oc2ccccc2C#N)ncn1 lower than 80% or not?
Output: no

Input: Same question for CCCCc1c(C)c2ccc(OCc3ccccc3/C(=C\OC)C(=O)OC)cc2oc1=O please.
Output: no

Input: // query: CO/C=C(/C(=O)OC)c1ccccc1COc1ccc2c(-c3ccccc3)cc(=O)oc2c1
Output: yes

Input: Another molecule to look at: CCCCc1c(C)c2ccc(OCc3ccccc3N(OC)C(=O)OC)cc2oc1=O
Output: yes

Input: What do we get for CO/C=C(/C(=O)OC)c1ccccc1COc1ccc2c(C)c(Cl)c(=O)oc2c1 ?
Output: no
